The origin of these recorded values is patent EP0752465A1.

procedure_details: Hydrolysis rate of betaine ester, pH-stat titrator at constant pH and temperature
Type: physicochemical
measurement_setup: buffer, pH 10.5, 40°C, pH 10.5, 1.25 10^-2 mol/l, alone; read-out: t1/2
Protocol: Test realised under pH-stat configuartion, at controlled temperature (40°C). Concentration in betaine ester used 1.5.10^-2 mol/l [formula] Test conditions: C12 BEG added to a solution (pH 10.5) of sodium stearate in distilled water. pH and temperature maintained constant all along the test. Percentage of C12 BEG hydrolysed assessed using an automatic pH stat titrator. […] [formula] • Hydrolysis rate determined with a Radiometer pH stat. • Temperature (40°C) and pH (10.5) maintained constant. […]
result_type: half-life at 0.0125 mol/l

structure_string=CCCCCCCCCCCC[N+](C)(C)CC(=O)OC/C=C(\C)CCC=C(C)C.[Br-] observed_value="< 2 s"
